E(max)% listing for selected compounds.
tgt: hCB2R (Homo sapiens, UniProt P34972)
Construct: purchased Charles River A318; host or cells: CHO-K1 cells
Sequence (P34972 whole entry): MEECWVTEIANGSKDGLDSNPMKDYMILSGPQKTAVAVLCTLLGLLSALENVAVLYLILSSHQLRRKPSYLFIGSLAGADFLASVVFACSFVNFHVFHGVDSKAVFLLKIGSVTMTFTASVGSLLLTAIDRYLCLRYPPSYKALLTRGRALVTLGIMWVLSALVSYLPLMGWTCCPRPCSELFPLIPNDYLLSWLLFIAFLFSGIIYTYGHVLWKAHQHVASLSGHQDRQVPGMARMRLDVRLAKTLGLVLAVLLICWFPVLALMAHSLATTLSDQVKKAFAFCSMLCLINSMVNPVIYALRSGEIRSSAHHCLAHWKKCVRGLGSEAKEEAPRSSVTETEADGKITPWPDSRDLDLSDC
experiment_summary: [35S]GTPγS binding assay at hCB2R
Format: biochemical
particulars: maximal effect as percentage of HU-308 response at 1 µM
recorded_metric: E(max)% (%)

[[record]]
compound = "CCCCCCC(C)(C)c1cc(OC)c([C@@H]2C=C(CO)[C@@H]3C[C@H]2C3(C)C)c(OC)c1 [HU-308, reference compound]"
tgt = "hCB2R (Homo sapiens, UniProt P34972)"
result_value = 100

[[record]]
compound = "CCCCCCC(C)(C)c1cc(OC)c(C2(O)C3(C)CCC(C3)C2(C)C)c(OC)c1F (centres unmarked) [Compound 4d]"
tgt = "hCB2R (Homo sapiens, UniProt P34972)"
result_value = 119

[[record]]
compound = "CCCCCCC(C)(C)c1cc(O)c(C2(O)C3(C)CCC(C3)C2(C)C)c(OC)c1 (centres unmarked) [Compound 5d]"
tgt = "hCB2R (Homo sapiens, UniProt P34972)"
result_value = 105

[[record]]
compound = "CCCCCc1cc(OC)c(C2(O)C3(C)CCC(C3)C2(C)C)c(OC)c1F (centres unmarked) [Compound 4b]"
tgt = "hCB2R (Homo sapiens, UniProt P34972)"
result_value = 54.2

[[record]]
compound = "CCCCCCC(C)(C)c1cc(OC)c(C2(O)C3(C)CCC(C3)C2(C)C)c(OC)c1 (centres unmarked) [Compound 1d]"
tgt = "hCB2R (Homo sapiens, UniProt P34972)"
result_value = 89.6

